Assay: Octanol-phosphate buffer partition coefficient, log P of the compound at pH 11.5
Format: physicochemical
READOUT KIND: logD

compound=CCCNC(=N)NC(=N)Nc1ccc(Cl)cc1 value_observed=2.63
compound=CCCCCCCCCCNC(=N)NC(=N)Nc1ccccc1 value_observed=5.43
compound=CSc1ccc(NC(=N)NC(=N)NCCCCCCNC(=N)NC(=N)Nc2ccc(SC)cc2)cc1 value_observed=4.58

(a) CCCCCC/N=C(N)/N=C(\N)Nc1ccc(Cl)cc1
(b) N=C(NCCCCCCNC(=N)NC(=N)Nc1cccc(C(F)(F)F)c1)NC(=N)Nc1cccc(C(F)(F)F)c1
Prompt: Hi, I'm comparing two records. Which one has the lower logD, a or b ? Answer with the label corresponding to your selection.
Completion: a
(a: 3.13, b: 5.12)

====

Test: Dissociation constant, pKa of the compound in 3:1 water:ethanol at 1 x 10 '-3 M
Type: physicochemical
READOUT KIND: pKa at 1000 µM

molecule=CCOC(=N)NC(=N)Nc1ccc(Cl)cc1 value_observed=9.36
molecule=CCNC(=N)NC(=N)Nc1ccc(Cl)cc1 value_observed=10.8
molecule=CNC(=N)NC(=N)Nc1ccc(Cl)cc1 value_observed=10.6
molecule=CC(C)OC(=N)NC(=N)Nc1ccc(Cl)cc1 value_observed=9.35
molecule=CCCNC(=N)NC(=N)Nc1ccc(Cl)cc1 value_observed=10.8
molecule=CCCCNC(=N)NC(=N)Nc1ccc(Cl)cc1 value_observed=10.8
molecule="N=C(NCCCCCCNC(=N)NC(=N)Nc1ccc(Cl)cc1)NC(=N)Nc1ccc(Cl)cc1 [CHLORHEXIDINE]" value_observed=10.8

====

Test: Octanol-phosphate buffer partition coefficient, log P of the compound at pH 11.5
Assay type: physicochemical
READOUT KIND: logD

# example entries with known answers
compound="CCCCC(CC)CNC(=N)NC(=N)NCCCCCCNC(=N)NC(=N)NCC(CC)CCCC (stereo not given)" readout_kind=logD value_observed=7.04
compound=N=C(NCCCCCCNC(=N)NC(=N)NC12CC3CC(CC(C3)C1)C2)NC(=N)NC12CC3CC(CC(C3)C1)C2 readout_kind=logD value_observed=6.04
compound=CCCCCCCCNC(=N)NC(=N)Nc1ccc(OC)cc1 readout_kind=logD value_observed=4.41

(A) CCCCCCCCNC(=N)NC(=N)Nc1cccc(C(F)(F)F)c1
(B) CCOC(=N)NC(=N)Nc1ccc(Cl)cc1
Prompt: Lower value for measured logD? Options: A , B Kindly state the label of the option you pick.
Completion: B
(B: 2.32, A: 5.31)

====

System: Streptococcus mutans
Assay: Antimicrobial activity against Streptococcus mutans 6715 after 48 hrs by spectrophotometry
Format: functional
READOUT KIND: log(1/MIC)

Example entries and their recorded answers appear below.
compound=CCCCCS(=O)(=O)c1ccc(NC(=N)NC(=N)NCCCCCCNC(=N)NC(=N)Nc2ccc(S(=O)(=O)CCCCC)cc2)cc1 value_observed=5.4
compound=N=C(NCCCCCCNC(=N)NC(=N)NC12CC3CC(CC(C3)C1)C2)NC(=N)NC12CC3CC(CC(C3)C1)C2 value_observed=5
compound=CCCCS(=O)(=O)c1ccc(NC(=N)NC(=N)NCCCCCCNC(=N)NC(=N)Nc2ccc(S(=O)(=O)CCCC)cc2)cc1 value_observed=4.52
compound=CCCCSc1ccc(NC(=N)NC(=N)NCCCCCCNC(=N)NC(=N)Nc2ccc(SCCCC)cc2)cc1 value_observed=5.52
compound=CC(C)OC(=N)NC(=N)Nc1ccc(Cl)cc1 value_observed=3.3

(A) CCCCCCCCCCNC(=N)NC(=N)Nc1ccccc1
(B) CC(C)NC(=N)NC(=N)Nc1ccc(Cl)cc1 [PROGUANIL]
Prompt: Which numeric log(1/MIC) is bigger, that of A or that of B ? Field: selected label. Fill in the label of the entry you choose.
Completion: A
(A: 5.15, B: 3)
